# tgt: rat CB-1 receptor (Rattus norvegicus, UniProt P20272)
# Construct: The tissue obtained from the brain of SD rats was homogenized; from tissue; host or cells: SD rat brain (membrane pellet of homogenate)
# Sequence (P20272 whole entry): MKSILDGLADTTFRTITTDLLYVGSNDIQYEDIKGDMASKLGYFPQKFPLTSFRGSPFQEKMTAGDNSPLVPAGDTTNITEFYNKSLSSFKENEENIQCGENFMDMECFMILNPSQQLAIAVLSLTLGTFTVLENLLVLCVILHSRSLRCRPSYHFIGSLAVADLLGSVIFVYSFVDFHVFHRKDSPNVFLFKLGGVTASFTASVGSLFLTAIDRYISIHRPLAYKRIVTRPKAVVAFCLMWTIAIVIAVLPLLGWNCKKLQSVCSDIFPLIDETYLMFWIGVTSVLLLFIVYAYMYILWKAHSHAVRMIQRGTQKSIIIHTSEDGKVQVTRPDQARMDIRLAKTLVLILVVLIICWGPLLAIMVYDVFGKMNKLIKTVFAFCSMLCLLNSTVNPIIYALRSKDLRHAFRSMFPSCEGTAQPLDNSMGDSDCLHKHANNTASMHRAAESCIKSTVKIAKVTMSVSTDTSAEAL
# assay_name: rat CB-1 receptor binding protocol with [3H]CP-55940 on SD rat brain tissue
# test_context: [3H]CP-55940 displacement, SD rat brain homogenate; read-out: IC50 (binding affinity for CB1 receptor)
measured_metric: IC50

Q: What is its IC50 for rat CB-1 receptor (Rattus norvegicus, UniProt P20272)? Entry: "Cc1c(C(=O)NC(=O)Nc2ccccc2)nn(-c2ccc(Cl)cc2Cl)c1-c1ccc(Cl)cc1"
A: > 10 µM

====

# tgt: rat CB-1 receptor (Rattus norvegicus, UniProt P20272)
# Construct: The tissue obtained from the brain of SD rats was homogenized; from tissue; host or cells: SD rat brain (membrane pellet of homogenate)
# assay_name: rat CB-1 receptor binding protocol with [3H]CP-55940 on SD rat brain tissue
# test_context: [3H]CP-55940 displacement, SD rat brain homogenate, 30° C., 60 min; read-out: IC50 (binding affinity for CB1 receptor)
Give log10(IC50) for every item shown.
Kindly note that the scale is log10 and the underlying IC50 is in nM.

Examples with answers:
Q: Which log10(IC50) is listed for CCCCCC(=O)NC(=O)c1nn(-c2ccc(Cl)cc2Cl)c(-c2ccc(Cl)cc2)c1C [Example 8] ?
A: 1.53

Q: Which log10(IC50) is listed for CCCC(=O)NCNC(=O)c1nn(-c2ccc(Cl)cc2Cl)c(-c2ccc(Cl)cc2)c1C [Example 36] ?
A: 2.96

Q: Which log10(IC50) is listed for CCC(C)(C)C(=O)NC(=O)c1nn(-c2ccc(Cl)cc2Cl)c(-c2ccc(Cl)cc2)c1C [Example 11] ?
A: 1.33

Q: Which log10(IC50) is listed for CCCCC(CC)C(=O)NC(=O)c1nc(-c2ccc(Cl)cc2Cl)n(-c2ccc(Cl)cc2)c1C (centres unmarked) [Example 32] ?
A: 1.67

Q: Which log10(IC50) is listed for CCCCCCNC(=O)NC(=O)c1nn(-c2ccc(Cl)cc2Cl)c(-c2ccc(Cl)cc2)c1C [Example 15] ?
A: 2.14

Q: Which log10(IC50) is listed for Cc1c(C(=O)NC(=O)OC(C)(C)C)nn(-c2ccc(Cl)cc2Cl)c1-c1ccc(Cl)cc1 [Example 25] ?
A: 1.92

Q: Which log10(IC50) is listed for Cc1c(C(=O)NCNC(=O)C2CCCCCC2)nn(-c2ccc(Cl)cc2Cl)c1-c1ccc(Cl)cc1 [Example 38] ?
A: 1.88

Now consider a different molecule.
Q: Which log10(IC50) is listed for Cc1c(C(=O)NCNC(=O)CC2CCCCC2)nn(-c2ccc(Cl)cc2Cl)c1-c1ccc(Cl)cc1 [Example 39] ?
A: 1.67
